- Tested on: NCI-H226
- test_name: NCI 60-cell line one-dose antiproliferative screen (SRB)
- Assay type: cell-based
- assay_context: Homo sapiens, read-out: growth inhibition % (GI%)
measured_property: inhibition at 10 µM

INPUT: # inhibition at 10 µM lookup, item Cc1ccc(C(=O)c2ccc(CC(=O)NN3C(=O)CCC3=O)n2C)cc1
OUTPUT: 22.6%

INPUT: # inhibition at 10 µM lookup, item Cc1ccc(C(=O)c2ccc(CC(=O)NN=C3C(=O)Nc4ccccc43)n2C)cc1
OUTPUT: < 10%

INPUT: # inhibition at 10 µM lookup, item Cc1ccc(C(=O)c2ccc(CC(=O)NNC(=O)Nc3c(C)cccc3Cl)n2C)cc1
OUTPUT: < 10%

* * *

Kindly supply the reported inhibition at 10 µM values for the records listed here.
- System: HS 578 T
- test_name: NCI 60-cell line one-dose antiproliferative screen (SRB)
- Type: cell-based
- assay_context: Homo sapiens, read-out: growth inhibition % (GI%)

INPUT: # inhibition at 10 µM lookup, item Cc1ccc(C(=O)c2ccc(CC(=O)NNC(=O)Nc3c(C)cccc3Cl)n2C)cc1 [Compound 8b]
OUTPUT: < 10%

INPUT: # inhibition at 10 µM lookup, item Cc1ccc(C(=O)c2ccc(CC(=O)NN=Cc3c[nH]c4ccccc34)n2C)cc1 [Compound 5f]
OUTPUT: < 10%

INPUT: # inhibition at 10 µM lookup, item Cc1ccc(C(=O)c2ccc(CC(=O)NN=Cc3cccc(O)c3O)n2C)cc1 [Compound 5b]
OUTPUT: 12.6%

INPUT: # inhibition at 10 µM lookup, item Cc1ccc(C(=O)c2ccc(CC(=O)NN=Cc3ccc(O)cc3O)n2C)cc1 [Compound 5c]
OUTPUT: 25.1%

INPUT: # inhibition at 10 µM lookup, item Cc1ccc(C(=O)c2ccc(CC(=O)NNC(=O)Nc3c(Cl)cccc3Cl)n2C)cc1 [Compound 8a]
OUTPUT: < 10%

INPUT: # inhibition at 10 µM lookup, item Cc1ccc(C(=O)c2ccc(CC(=O)NN=Cc3cc4ccccc4[nH]3)n2C)cc1 [Compound 5e]
OUTPUT: < 10%

INPUT: # inhibition at 10 µM lookup, item Cc1ccc(C(=O)c2ccc(CC(=O)NN3C(=O)c4ccccc4C3=O)n2C)cc1 [Compound 7c]
OUTPUT: < 10%

INPUT: # inhibition at 10 µM lookup, item Cc1ccc(C(=O)c2ccc(CC(=O)NN3C(=O)C=CC3=O)n2C)cc1 [Compound 7b]
OUTPUT: < 10%

INPUT: # inhibition at 10 µM lookup, item Cc1ccc(C(=O)c2ccc(CC(=O)NNC(=O)Nc3ccc(Cl)c(C(F)(F)F)c3)n2C)cc1 [Compound 8c]
OUTPUT: 11.9%

INPUT: # inhibition at 10 µM lookup, item Cc1ccc(C(=O)c2ccc(CC(=O)NN=Cc3ccc4c(c3)OCO4)n2C)cc1 [Compound 5d]
OUTPUT: < 10%

* * *

- Test system: MDA-MB-435
- test_name: NCI 60-cell line one-dose antiproliferative screen (SRB)
- Type: cell-based
- assay_context: Homo sapiens, read-out: growth inhibition % (GI%)
measured_property: inhibition at 10 µM

INPUT: Fill in the recorded inhibition at 10 µM for this compound, with MDA-MB-435 as test system: Cc1ccc(C(=O)c2ccc(CC(=O)NN3C(=O)CCC3=O)n2C)cc1
OUTPUT: < 10%

INPUT: Fill in the recorded inhibition at 10 µM for this compound, with MDA-MB-435 as test system: Cc1ccc(C(=O)c2ccc(CC(=O)NN=C3C(=O)Nc4ccc(Br)cc43)n2C)cc1
OUTPUT: < 10%

INPUT: Fill in the recorded inhibition at 10 µM for this compound, with MDA-MB-435 as test system: Cc1ccc(C(=O)c2ccc(CC(=O)NNC(=O)Nc3ccc(Cl)c(C(F)(F)F)c3)n2C)cc1
OUTPUT: 20.7%

INPUT: Fill in the recorded inhibition at 10 µM for this compound, with MDA-MB-435 as test system: Cc1ccc(C(=O)c2ccc(CC(=O)NN3C(=O)C=CC3=O)n2C)cc1
OUTPUT: < 10%

INPUT: Fill in the recorded inhibition at 10 µM for this compound, with MDA-MB-435 as test system: Cc1ccc(C(=O)c2ccc(CC(=O)NN3C(=O)c4ccccc4C3=O)n2C)cc1
OUTPUT: < 10%

INPUT: Fill in the recorded inhibition at 10 µM for this compound, with MDA-MB-435 as test system: Cc1ccc(C(=O)c2ccc(CC(=O)NN=Cc3ccccc3O)n2C)cc1
OUTPUT: 16.8%

INPUT: Fill in the recorded inhibition at 10 µM for this compound, with MDA-MB-435 as test system: Cc1ccc(C(=O)c2ccc(CC(=O)NN=Cc3c[nH]c4ccccc34)n2C)cc1
OUTPUT: < 10%

INPUT: Fill in the recorded inhibition at 10 µM for this compound, with MDA-MB-435 as test system: Cc1ccc(C(=O)c2ccc(CC(=O)NN=Cc3cccc(O)c3O)n2C)cc1
OUTPUT: 38.9%
